Origin of the recorded values: PubChem BioAssay (NCI)

# TGI per record follows
System: BT-549 breast
protocol_summary: NCI tumour cell line growth inhibition, 48 h

>  <compound>
CS(=O)(=O)CCNCc1ccc(-c2ccc3ncnc(Nc4ccc(OCc5ccccc5)c(Cl)c4)c3c2)o1

>  <TGI>
> 25 µM

$$$$
>  <compound>
O=C=NCCCCCCN1C(=O)N2C(c3ccccc3)N(CCCCCCN=C=O)C(=O)N2C1c1ccccc1 (centres undefined)

>  <TGI>
> 100 µM

$$$$
>  <compound>
Nc1nc(N)c2nc(CNc3ccc(C(=O)NC(CCCNC(=O)c4ccccc4C(=O)O)C(=O)O)cc3)cnc2n1 (centres undefined)

>  <TGI>
> 100 µM

$$$$

Entry COc1ccccc1S(=O)(=O)Nc1ccc2c(c1)CN(C)C(=O)N2 : reported TGI = ? > 100 µM

* * *

Each item that follows carries a reported TGI.
Test system: OVCAR-4 ovarian
protocol_summary: NCI tumour cell line growth inhibition, 48 h

>  <compound>
NC(=O)c1[nH]cnc1/N=N/SCC(N)C(=O)O (stereo not drawn)

>  <TGI>
> 100 µM

$$$$

Returns the measured TGI for the input compound. Input: Cc1cc(C)c(S(=O)(=O)ONC(=O)OC(C)(C)C)c(C)c1 > 100 µM

Same lookup for Cn1c(=S)c2[nH]c(SCCN3CCCC3)nc2n(C)c1=O , please. > 100 µM

* * *

System: SN12C renal
protocol_summary: NCI tumour cell line growth inhibition, 48 h
TGI values, listed per item

>  <molecule>
COC(OC)[C@@H](C)[C@H](O)[C@](C)(O)C1OC(C)(C)OC(C(C)C=C(C)C)C1C (stereo partly drawn)

>  <outcome_measure>
TGI

>  <data_value>
> 100 µM

$$$$

Give the measured TGI of O=C(NO)C(=O)Nc1ccc(Cl)cc1[N+](=O)[O-] . > 100 µM

Try CCOC(=O)Nc1ccc(-c2nc(-c3cccc(OC)c3)c(-c3ccnc(Br)c3)[nH]2)cc1 next. > 100 µM

* * *

System: MDA-MB-435
protocol_summary: NCI tumour cell line growth inhibition, 48 h
TGI: recorded values

In the examples that follow, each entry is paired with its recorded TGI.
>  <compound>
CC/C(C)=C1\OC(=O)C(C)C(O)C(Cc2cccnc2)NC(=O)C(NC(=O)c2ncccc2O)C(C)OC1=O (stereo not drawn)

>  <TGI>
> 100 µM

$$$$
>  <compound>
COc1ccc([C@@]23OC[C@@H]4[C@@H](OC[C@@H]42)c2cc(OC)c(OC)cc23)cc1OC

>  <TGI>
> 100 µM

$$$$

Proceeding to the next compound to report its TGI.
GET /values?readout=TGI&system=MDA-MB-435&item= COc1ccccc1S(=O)(=O)Nc1ccc2c(c1)CN(C)C(=O)N2 > 100 µM

* * *

Test system: HT29 colon
protocol_summary: NCI tumour cell line growth inhibition, 48 h
outcome_measure: TGI

Previously resolved entries follow.
>  <compound>
C=CC[C@@]1(C)CCCCCCCCC[C@@](C)(CC=C)C1=O

>  <TGI>
38.2 µM

$$$$
>  <compound>
CCOC(=O)c1ccc(-n2c(SCC)nc3sc(C)c(C)c3c2=O)cc1

>  <TGI>
> 100 µM

$$$$
>  <compound>
O=C(NC(Nc1ccc(F)c(Cl)c1)(C(F)(F)F)C(F)(F)F)OCc1ccccc1

>  <TGI>
> 100 µM

$$$$
>  <compound>
COc1ccc(/C(=N/NC(N)=O)C(c2ccc(OC)cc2)C2C(=O)Oc3ccccc32)cc1 (stereo unspecified)

>  <TGI>
> 100 µM

$$$$
>  <compound>
COc1cc(N(CCC#N)CCC#N)ccc1/C(N=Nc1ccccc1)=N/NC(=O)c1cc(Br)ccc1O

>  <TGI>
71.4 µM

$$$$

Field: next compound
So what does the record say about TGI for COc1ccc2c(c1)CCC1=CC3(CCC12C)SCCS3 (stereo unspecified) ? > 10 µM

* * *

Parameter: TGI. Scope: all listed entries.
System: HCT-116 colon
protocol_summary: NCI tumour cell line growth inhibition, 48 h

>  <compound>
O=C(NCCCCCCCCNC(=O)c1cccc2ccccc12)c1cccc2ccccc12

>  <outcome_measure>
TGI

>  <data_value>
> 83.4 µM

$$$$
>  <compound>
NC(=O)/C=C/NC(=O)/C=N\O

>  <outcome_measure>
TGI

>  <data_value>
> 100 µM

$$$$
>  <compound>
Cc1cc(OCC(=O)N/N=C/C(Br)=C/c2ccccc2)nc(SCC(=O)N/N=C/C(Br)=C/c2ccccc2)n1

>  <outcome_measure>
TGI

>  <data_value>
> 100 µM

$$$$

Need TGI, item COc1cccc(CC2Cc3ccccc3CC(=O)N2)c1 (stereo unspecified) > 100 µM

Now give it for CCCCC(=O)Oc1ccc2c(C)cc(=O)oc2c1 too. > 100 µM

Now the compound NC(Cc1ccccc1)(C(=O)O)C(=O)O > 100 µM

* * *

Tested on: PC-3 prostate
protocol_summary: NCI tumour cell line growth inhibition, 48 h
Quick reference for TGI among some compounds

>  <compound>
Nc1nc(N)c2nc(CNc3ccc(C(=O)NC(CCCNC(=O)c4ccccc4C(=O)O)C(=O)O)cc3)cnc2n1 (stereo not drawn)

>  <outcome_measure>
TGI

>  <data_value>
> 100 µM

$$$$
>  <compound>
COc1ccc2c(c1)CCC1=CC3(CCC12C)SCCS3 (stereo not drawn)

>  <outcome_measure>
TGI

>  <data_value>
> 10 µM

$$$$

Continue with the compound presented below.
Which measured TGI value corresponds to CNC1C(O)C(OC2C(N)CC(N)C(OC3OC(C(C)O)C(O)C(O)C3N)C2O)OCC1(C)O (stereo not drawn) ? > 100 µM

* * *

Test system: HT29 colon
protocol_summary: NCI tumour cell line growth inhibition, 48 h
Listing: TGI of selected compounds

Lookup: TGI / HT29 colon / COc1cc2cc(C(=O)N3CC(CCl)c4ccccc43)[nH]c2c(OC)c1OC (stereo not drawn) > 57.9 µM

And what about the compound COc1c(O)c2c(=O)cc(OC)c3c4c(OC)cc(=O)c5c(O)c(OC)c6c(c(c1C(C(C)=O)C6C(C)O)c23)c54 (stereo not drawn) ? 0.267 µM

// same read-out, input: CC(=O)NNc1nc(C)c(C(/C=C/c2ccc(Cl)cc2)=N/NC(=O)C[N+](C)(C)C)s1 > 100 µM

* * *

Each record here notes measured TGI.
Test system: MOLT-4 leukemia
protocol_summary: NCI tumour cell line growth inhibition, 48 h

Answered cases to consult:
>  <molecule>
NC(Cc1ccccc1)(C(=O)O)C(=O)O

>  <TGI>
> 100 µM

$$$$
>  <molecule>
CCc1c(Cc2cc(C)cc(C)c2)n2c(nc1=O)SCC2CBr (configuration not stated)

>  <TGI>
> 50 µM

$$$$
>  <molecule>
COC12CC(=O)C(C(C)=O)=C(O)C1(C)c1c(OC(C)=O)c(C)c(O)c(C(C)=O)c1O2 (configuration not stated)

>  <TGI>
> 100 µM

$$$$
>  <molecule>
N#CCCN(CCN(C(=O)Nc1ccccc1)c1ccccc1)C(=O)Nc1ccccc1

>  <TGI>
> 84.5 µM

$$$$
>  <molecule>
O=C(O)C12CCCC(CCC1)C2

>  <TGI>
> 100 µM

$$$$
>  <molecule>
O=C(O)c1ccccc1/C=N/NC1=NCCCCN1

>  <TGI>
> 100 µM

$$$$
>  <molecule>
Cc1cc(C)nc(SC2=C(Nc3cccc(Cl)c3C)C(=O)N(Cc3ccccc3)C2=O)n1

>  <TGI>
> 160 µM

$$$$
>  <molecule>
COc1ccc(/C(=N/NC(N)=O)C(c2ccc(OC)cc2)C2C(=O)Oc3ccccc32)cc1 (configuration not stated)

>  <TGI>
> 100 µM

$$$$
>  <molecule>
NNc1[nH]c(=S)[nH]c1C(N)=O

>  <TGI>
> 100 µM

$$$$
>  <molecule>
COc1ccc(-c2cc(=O)c3c(O)cc(C)cc3o2)cc1OC

>  <TGI>
> 100 µM

$$$$

Query the reported TGI for MOLT-4 leukemia; item: CCCCCC/C=C\CCCCCCCCCC1=CC(=O)C=C(OC)C1=O > 100 µM

Entry to check: COc1ccc(Cc2nccc3cc(OC)c(OC)cc23)cc1OC > 100 µM

* * *

Recorded TGI for the following compounds
Tested on: RPMI-8226 leukemia
protocol_summary: NCI tumour cell line growth inhibition, 48 h

Consider the worked cases shown below.
>  <chemical_string>
CN(C)C(=O)Oc1ccc(-c2cn3cc(NC(=O)c4ccccc4)ccc3n2)cc1

>  <TGI>
> 100 µM

$$$$
>  <chemical_string>
Cc1ccsc1/C=N/Nc1nncc2ccccc12

>  <TGI>
> 100 µM

$$$$
>  <chemical_string>
Cn1ncnc1CCc1ccccc1

>  <TGI>
> 100 µM

$$$$
>  <chemical_string>
O=C(c1ccccc1)c1nc2ccc(C(F)(F)F)cc2[n+]([O-])c1C(F)(F)F

>  <TGI>
> 100 µM

$$$$
>  <chemical_string>
O=C1c2scc(-c3ccc(Cl)cc3)c2-n2cccc21

>  <TGI>
> 100 µM

$$$$

Now consider a different compound.
Record request: TGI value, item C=CCN1C(=O)CS/C1=N/NC(=O)C(O)(c1ccccc1)c1ccccc1 > 10 µM
